Data origin: ChEMBL document CHEMBL3046680

Experiment: Apparent permeability across basal to apical side of Sprague-Dawley Rattus norvegicus (rat) everted ileum sac at 1 mg/ml by HPLC method
Format: ADME, tissue-based
Details: Sprague-Dawley
READOUT LABEL: Papp B→A at 1 mg/ml (×10⁻⁶ cm/s)

{"MOLECULE": "CC(C)[C@H]1CC[C@H](C(=O)N[C@H](Cc2ccccc2)C(=O)O)CC1 (racemic; form 1) [NATEGLINIDE]", "READOUT LABEL": "Papp B→A at 1 mg/ml", "VALUE REPORTED": 590}

====

Entries and their efflux ratio at 500 ug/ml
Assay: Efflux Rattus norvegicus (rat)io of apparent permeability from basal to apical side over apical to basal side of Sprague-Dawley Rattus norvegicus (rat) jejunum sac at 500 ug/ml by HPLC method
Format: ADME, tissue-based

{"COMPOUND": "CC(C)[C@H]1CC[C@H](C(=O)N[C@H](Cc2ccccc2)C(=O)O)CC1 [NATEGLINIDE]", "efflux ratio at 500 ug/ml": 2}
{"COMPOUND": "CC(C)[C@H]1CC[C@H](C(=O)N[C@@H](Cc2ccccc2)C(=O)O)CC1 [(S)-NATEGLINIDE]", "efflux ratio at 500 ug/ml": 1.7}

====

Experiment: Apparent permeability across apical to basal side of Sprague-Dawley Rattus norvegicus (rat) normal jejunum sac at 500 ug/ml by HPLC method
Format: ADME, tissue-based
READOUT LABEL: Papp A→B at 500 ug/ml (×10⁻⁶ cm/s)

{"MOLECULE": "CC(C)[C@H]1CC[C@H](C(=O)N[C@H](Cc2ccccc2)C(=O)O)CC1 [NATEGLINIDE]", "READOUT LABEL": "Papp A→B at 500 ug/ml", "VALUE REPORTED": 120}
{"MOLECULE": "CC(C)[C@H]1CC[C@H](C(=O)N[C@@H](Cc2ccccc2)C(=O)O)CC1 [(S)-NATEGLINIDE]", "READOUT LABEL": "Papp A→B at 500 ug/ml", "VALUE REPORTED": 130}

====

Assay: Apparent permeability across apical to basal side of Sprague-Dawley Rattus norvegicus (rat) normal ileum sac at 1 mg/ml by HPLC method
Format: ADME, tissue-based
Settings: Sprague-Dawley

{"MOLECULE": "CC(C)[C@H]1CC[C@H](C(=O)N[C@H](Cc2ccccc2)C(=O)O)CC1 (racemic; form 1) [NATEGLINIDE]", "Papp A→B at 1 mg/ml, ×10⁻⁶ cm/s": 190}

====

Assay: Apparent permeability across apical to basal side of Sprague-Dawley Rattus norvegicus (rat) normal jejunum sac at 1 mg/ml by HPLC method
Assay type: ADME, tissue-based
Details: Sprague-Dawley

{"COMPOUND": "CC(C)[C@H]1CC[C@H](C(=O)N[C@H](Cc2ccccc2)C(=O)O)CC1 (racemic; form 1) [NATEGLINIDE]", "SCALE UNIT": "×10⁻⁶ cm/s", "Papp A→B at 1 mg/ml": 230}

====

Assay: Apparent permeability across apical to basal side of Sprague-Dawley Rattus norvegicus (rat) normal duodenum sac at 500 ug/ml by HPLC method
Format: ADME
Entries and their Papp A→B at 500 ug/ml

{"COMPOUND": "CC(C)[C@H]1CC[C@H](C(=O)N[C@H](Cc2ccccc2)C(=O)O)CC1 [NATEGLINIDE]", "Papp A→B at 500 ug/ml (×10⁻⁶ cm/s)": 150}
{"COMPOUND": "CC(C)[C@H]1CC[C@H](C(=O)N[C@@H](Cc2ccccc2)C(=O)O)CC1 [(S)-NATEGLINIDE]", "Papp A→B at 500 ug/ml (×10⁻⁶ cm/s)": 140}
